- System: HIV-IIIb
- PROTOCOL_DESCRIPTION: Test A: Antiviral Assay in MT4 Cells
- Format: cell-based, HIV-1
- CONDITION_PARAMETERS: Human immunodeficiency virus 1, MT4, 120 h; inhibition of virus-induced cell killing, from dose response curve at 0.01 μM (10 nM); MT-4 cells, HIV-IIIb, 5 days; values normalized to 100%; read-out: % inhibition at 0.01 μM
REPORTED_ENDPOINT: inhibition at 0.01 µM (%)
# unit: % | format: bare number

Query: Identify measured inhibition at 0.01 µM corresponding to CC(C)(C#Cc1ccc(-c2ccc(Cl)c3c(NS(C)(=O)=O)nn(CC(F)(F)F)c23)c([C@H](Cc2cc(F)cc(F)c2)NC(=O)Cn2nc(C(F)F)c3c2C(F)(F)[C@@H]2C[C@H]32)n1)S(=O)(=O)C1CC1 [Example 17]
Result: 98
